differentiation response for assorted compounds
# Protocol: promoters of myeloid differentiation in arrested cells, primary screen, cell-based, GFP/MAC1 double positive, flow cytometry, validation set (AID 588685);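 also: compound exposure lasts four days before antibody staining and flow analysis; 0% = DMSO wells and 100% = 5 µM fulvestrant positive control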
# Protocol Conditions: ER-HoxA9 marrow cells, stronger effect = higher value, normalized: vehicle 0, fulvestrant 100
Active and inactive are the calls of the source.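 The calls were made as follows: active = differentiation response of at least 50%, scaled between solvent and reference control, from cells with both markers; inactive = the rest.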
Result Type: differentiation response

| Compound | Result Type | Measured Value |
| --- | --- | --- |
| CC(C)Cc1cc(C(=O)N2CCC(N3CCC(C(=O)N4CCCC4)CC3)CC2)n[nH]1 | differentiation response | -27.6% (inactive) |
| Cc1ccsc1/C=N\NC(=O)c1ccc2c(c1)OCO2 | differentiation response | 1.41% (inactive) |
| O=C1C2C3C=CC(C4CC34)C2C(=O)N1/N=C/c1ccc(-c2ccc([N+](=O)[O-])cc2)o1 (stereo unspecified) | differentiation response | 0% (inactive) |
| COc1ccc2c(c1)CC[C@@H]1[C@@H]2CC[C@]2(C)C(=O)CC[C@@H]12 | differentiation response | -0.18% (inactive) |
| CN(CCCN1CCOCC1)Cc1cn(C)nc1-c1ccccc1F | differentiation response | -1.05% (inactive) |
| COCc1cc(=O)[nH]c(Nc2nc3ccccc3o2)n1 | differentiation response | 6.83% (inactive) |
| CC1(C)Cc2nc3oc4c(NCc5ccccc5)ncnc4c3cc2CO1 | differentiation response | 0% (inactive) |
| CCOC(=O)/C=C1\NC(C)(C)Cc2cc(OC)c(OC)cc21 | differentiation response | 31.2% (inactive) |
| Cc1ccc(OCCSc2ncccn2)c(C)c1 | differentiation response | -13.1% (inactive) |
| COc1cc2c(cc1O)CC[C@@H]1[C@@H]2CC[C@]2(C)[C@@H](O)CC[C@@H]12 | differentiation response | -9.91% (inactive) |
| Nc1nc2ccc(OC(F)(F)F)cc2s1 | differentiation response | 2.69% (inactive) |

* * *

# Protocol: modulators of LAP4-GFP expression in yeast, primary screen, S. cerevisiae, multiplex flow cytometry (AID 1873)
# Protocol Conditions: 3 h, at 10 µM, stronger effect = higher value
Inconclusive results are not listed. Peptide text beside a SMILES is read from it. * marks the point of attachment. Boc = CC(C)(C)OC(=O)*
// label = TRUE if GFP response vs DMSO is not less than 90%, otherwise FALSE

| Compound | Group Label |
| --- | --- |
| CC(C)(C)OC(=O)N1CCCC1C(=O)NC(Cc1ccccc1)C(=O)O (stereo not drawn) (Boc-Pro-Phe-OH; configuration not given here) | TRUE |
| CCCCC/C=C\C[C@H](O)/C=C/c1cccc(C[C@H](O)CCCCO)n1 | FALSE |
| COc1cccc(N2CC(O)=C(c3nc4ccccc4c(=O)[nH]3)C2=N)c1 | FALSE |
| O=C(O)c1cccnc1 | TRUE |
| Cc1cc(OC(C(=O)O)c2ccccc2)c2c(C)c(Cc3ccccc3)c(=O)oc2c1 (centres undefined) | TRUE |
| CCOC(=O)C1=C(N)Oc2c(oc(CO)cc2=O)C1c1ccc(F)c(F)c1 (centres undefined) | TRUE |
| O=C(Nc1ccc(Oc2c(F)c(F)c(F)c(F)c2F)cc1)OC1CCN2Cc3ccccc3N=C12 (centres undefined) | TRUE |
| CCOc1ccc(CCn2c(-c3ccco3)nc3ccccc3c2=O)cc1OCC | TRUE |
| C[C@@H]1C[C@H]2[C@@H]3CCC4=CC(=O)C=C[C@]4(C)[C@@]3(F)[C@@H](O)C[C@]2(C)[C@H]1C(=O)CO | FALSE |

* * *

# Protocol: yeast V-ATPase proton transport modulators, S. cerevisiae, pHLuorin, HTS validation (AID 504600);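 also: plate controls were DMSO for no effect and reference compound for full effect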
# Protocol Conditions: S. cerevisiae pHLuorin cytosolic pH, at 10 µM, stronger effect = higher value
Active and inactive are the calls of the source. No stated cut-off is given here; in the data, active means response above about 15%; inactive means the rest.
response for assorted molecules
Result Type: response

| Molecule | Measured Value |
| --- | --- |
| O=S(=O)(NCCCCCNS(=O)(=O)c1ccccc1)c1ccccc1 | 1.49% (inactive) |
| CC[n+]1ccc2cc(OC)c(OC)cc2c1Cc1ccc(OC)c(OC)c1 | -0.56% (inactive) |
| OC[C@H]1O[C@@H](n2cnc3c(Nc4ccccc4)ncnc32)[C@H](O)[C@@H]1O | -0.49% (inactive) |
| CCOc1ccc(NC(=O)N[C@@H](CCSC)C(=O)OC)cc1 | 4.65% (inactive) |
| COc1ccc(OC)c(-c2oc3ccccc3c(=O)c2O)c1 | 5.05% (inactive) |
| CCOC(=O)c1cc2cc3ccccc3cc2[nH]1 | -1.49% (inactive) |
| O=c1cc(Cn2ccnc2)c2cc3c(cc2o1)CCC3 | -1.72% (inactive) |
| CC(=O)O[C@H]1C(=O)[C@@]2(C)[C@H]([C@H](OC(=O)c3ccccc3)[C@]3(O)C[C@H](OC(=O)[C@H](O)C(NC(=O)c4ccccc4)c4ccccc4)C(C)=C1C3(C)C)[C@]1(OC(C)=O)CO[C@@H]1C[C@@H]2O (some centres not stated) | -2.34% (inactive) |
| N#Cc1c2c(c(-c3ccccc3)[nH]c1=O)CCCC2 | -1.34% (inactive) |
| CN(CCCN1CCOCC1)Cc1cn(C)nc1-c1ccccc1F | 2.44% (inactive) |
| Cn1c2ccccc2c2cc(/C=C(\NC(=O)c3ccccc3)C(=O)O)ccc21 | 1.01% (inactive) |
| Cc1ccc(S(=O)(=O)Nc2ccc(S(=O)(=O)Nc3cc(C)nc(C)n3)cc2)cc1 | 15% (inactive) |
| O=P(O)(O)CP(=O)(O)O | -0.51% (inactive) |
| COc1ccc2[nH]c(C)c(CN3CCC(C)CC3)c(=O)c2c1 | 4.29% (inactive) |
| Cn1c2[n+](c3ccc(Cl)cc3c1=O)Cc1ccccc1-2 | 7.46% (inactive) |
| O=C1NC2(Nc3ccccc31)C(=O)Nc1ccc(Br)cc12 (configuration not stated) | 1.05% (inactive) |
| CC1(C)c2ccccc2N2CC(=O)N(CC(N)=O)C21C (configuration not stated) | 3.96% (inactive) |
| CCc1cccc2c1NC1(CCCC1)CC2C (configuration not stated) | 1.08% (inactive) |
| C[C@]12CCC(=O)C=C1CC[C@@H]1[C@@H]2C(=O)C[C@@]2(C)[C@H]1CC[C@]2(O)C(=O)CO | 1.03% (inactive) |
| CN1CCC(OC(c2ccccc2)c2ccccc2)CC1 | 1.48% (inactive) |
| Nc1cccc2c1nnn2C1OC(CO)C(O)C(O)C1O (configuration not stated) | 4.02% (inactive) |
| CN1CCC(=C2c3ccccc3CC(=O)c3sccc32)CC1 | 1.45% (inactive) |

* * *

# Protocol: RPL19A-GFP modulators, yeast TOR pathway, confirmation, cell-based, S. cerevisiae, flow cytometry, cherry picks, mother/daughter gates (AID 2270)
# Protocol Conditions: S. cerevisiae RPL19A-GFP strain, 3 h, measured here: mother cell gate, at 10 µM, stronger effect = lower value, 100 = same GFP as DMSO wells
GFP response vs DMSO for assorted compounds

| Mol Smiles | Unit Annotation | GFP response vs DMSO |
| --- | --- | --- |
| COC(=O)c1ccccc1Sc1ncnc2onc(C)c12 | % | 101 |
| CCOC(=O)C(=Cc1ccc(F)cc1)C(=O)OCC | % | 100 |
| C/C(=N\NC(=O)c1nonc1N)c1cccs1 | % | 98.1 |
| S=C(Sc1ccc(Cl)cc1)Sc1ccc(Cl)cc1 | % | 95.1 |
| Cc1cc(NCCCn2ccnc2)n2ncc(-c3ccccc3)c2n1 | % | 96.7 |
| Cc1ccc(NC(=O)COc2ccc(Br)cc2C)cc1 | % | 100 |
| O=C(Nc1nc(-c2ccc(Cl)s2)cs1)c1cccs1 | % | 93.7 |

* * *

GFP response, % of DMSO for assorted molecules
# Protocol: modulators of CIT2-GFP expression in yeast, confirmation, S. cerevisiae, GFP fusion, cherry picks, mother/daughter gates (AID 2274)
# Protocol Conditions: S. cerevisiae CIT2-GFP strain, flow cytometry, 3 h; at 10 µM; stronger effect = higher value

| Molecule | Unit Annotation | GFP response, % of DMSO |
| --- | --- | --- |
| O=C(CSc1cccc[n+]1[O-])CSc1cccc[n+]1[O-] | % | 97.2 |
| Cc1ccc(NC(=O)c2nc(S(=O)(=O)Cc3ccccc3)ncc2Cl)cc1 | % | 90 |
| c1ccc(-c2cccc(-c3ccccn3)n2)nc1 | % | 97.8 |
| CCOC(=O)c1ccc(N=Cc2nc(-c3ccccc3)oc2OC(C)=O)cc1 | % | 93 |
| COc1ccc(C(=O)c2no[n+]([O-])c2C(=O)c2ccc(OC)cc2)cc1 | % | 82.6 |
| CC(=O)Nc1cccc(Oc2ccc(-c3noc(C)n3)cc2)c1 | % | 97.3 |
| CCOc1ccccc1NC1=C(Cl)C(=O)N(Cc2ccccc2)C1=O | % | 99.1 |
| COc1cc(C)c(C)cc1S(=O)(=O)N1CCCCC1c1cccnc1 (stereo unspecified) | % | 96.4 |
| CCOc1ccccc1C1N=C(c2ccc(OC)cc2)CC(c2ccccc2O)N1 (stereo unspecified) | % | 110 |
| Cc1ccc(/C=C/c2ccc(N(C)C)cc2)[n+](C)c1 | % | 121 |
| COc1ccc(N2C(=O)CC(Sc3ncn[nH]3)C2=O)c(OC)c1 (stereo unspecified) | % | 109 |

The reported measurements were obtained from PubChem BioAssay.
